This collection of values is drawn from paper PMC6271078.

test: Aqueous solubility; assay type: physicochemical; details: ratio of compound solubility to Rapa solubility
measured.property: Times Increased of Aqueous Solubility (Comp. vs. Rapa)
No unit in the answer, only the number.

// sample CO[C@H]1C[C@@H]2CC[C@@H](C)[C@@](O)(O2)C(=O)C(=O)N2CCCC[C@H]2C(=O)O[C@H]([C@H](C)C[C@@H]2CC[C@@H](O)[C@H](OC)C2)CC(=O)[C@H](C)/C=C(\C)[C@@H](O)[C@@H](OC)C(=O)[C@H](C)C[C@H](C)/C=C/C=C/C=C/1C [Rapa, Rapamycin, reference compound] , its Times Increased of Aqueous Solubility (Comp. vs. Rapa) was 1

// sample CO[C@H]1C[C@@H]2CC[C@@H](C)[C@@](O)(O2)C(=O)C(=O)N2CCCC[C@H]2C(=O)O[C@H]([C@H](C)C[C@@H]2CC[C@@H](O)[C@H](OC)C2)CC(=O)[C@H](C)/C=C(\C)[C@@H](OC(=O)C[n+]2cccc(C)c2)[C@@H](OC)C(=O)[C@H](C)C[C@H](C)/C=C/C=C/C=C/1C , its Times Increased of Aqueous Solubility (Comp. vs. Rapa) was 10269

// sample CO[C@H]1C[C@@H]2CC[C@@H](C)[C@@](O)(O2)C(=O)C(=O)N2CCCC[C@H]2C(=O)O[C@H]([C@H](C)C[C@@H]2CC[C@@H](OC(=O)C[n+]3ccccc3)[C@H](OC)C2)CC(=O)[C@H](C)/C=C(\C)[C@@H](O)[C@@H](OC)C(=O)[C@H](C)C[C@H](C)/C=C/C=C/C=C/1C , its Times Increased of Aqueous Solubility (Comp. vs. Rapa) was 10

###

Counter-ions that a name gives are not always drawn.
measured.property: melting point

Answered examples (6):
{"compound": "CO[C@H]1C[C@@H]2CC[C@@H](C)[C@@](O)(O2)C(=O)C(=O)N2CCCC[C@H]2C(=O)O[C@H]([C@H](C)C[C@@H]2CC[C@@H](OC(=O)C[n+]3cscc3C)[C@H](OC)C2)CC(=O)[C@H](C)/C=C(\\C)[C@@H](O)[C@@H](OC)C(=O)[C@H](C)C[C@H](C)/C=C/C=C/C=C/1C (as salt: ammonium)", "result": "130 to 133 °C"}
{"compound": "CO[C@H]1C[C@@H]2CC[C@@H](C)[C@@](O)(O2)C(=O)C(=O)N2CCCC[C@H]2C(=O)O[C@H]([C@H](C)C[C@@H]2CC[C@@H](OC(=O)C[n+]3ccc(C)cc3)[C@H](OC)C2)CC(=O)[C@H](C)/C=C(\\C)[C@@H](O)[C@@H](OC)C(=O)[C@H](C)C[C@H](C)/C=C/C=C/C=C/1C (as salt: ammonium)", "result": "157 to 160 °C"}
{"compound": "CO[C@H]1C[C@@H]2CC[C@@H](C)[C@@](O)(O2)C(=O)C(=O)N2CCCC[C@H]2C(=O)O[C@H]([C@H](C)C[C@@H]2CC[C@@H](O)[C@H](OC)C2)CC(=O)[C@H](C)/C=C(\\C)[C@@H](OC(=O)C[n+]2ccccc2)[C@@H](OC)C(=O)[C@H](C)C[C@H](C)/C=C/C=C/C=C/1C (as salt: ammonium)", "result": "140 to 142 °C"}
{"compound": "CO[C@H]1C[C@@H]2CC[C@@H](C)[C@@](O)(O2)C(=O)C(=O)N2CCCC[C@H]2C(=O)O[C@H]([C@H](C)C[C@@H]2CC[C@@H](OC(=O)C[n+]3cccc(C)c3)[C@H](OC)C2)CC(=O)[C@H](C)/C=C(\\C)[C@@H](O)[C@@H](OC)C(=O)[C@H](C)C[C@H](C)/C=C/C=C/C=C/1C (as salt: ammonium)", "result": "138 to 140 °C"}
{"compound": "CO[C@H]1C[C@@H]2CC[C@@H](C)[C@@](O)(O2)C(=O)C(=O)N2CCCC[C@H]2C(=O)O[C@H]([C@H](C)C[C@@H]2CC[C@@H](O)[C@H](OC)C2)CC(=O)[C@H](C)/C=C(\\C)[C@@H](OC(=O)C[n+]2cccc(C)c2)[C@@H](OC)C(=O)[C@H](C)C[C@H](C)/C=C/C=C/C=C/1C (as salt: ammonium)", "result": "138 to 140 °C"}
{"compound": "CO[C@H]1C[C@@H]2CC[C@@H](C)[C@@](O)(O2)C(=O)C(=O)N2CCCC[C@H]2C(=O)O[C@H]([C@H](C)C[C@@H]2CC[C@@H](O)[C@H](OC)C2)CC(=O)[C@H](C)/C=C(\\C)[C@@H](OC(=O)C[n+]2cscc2C)[C@@H](OC)C(=O)[C@H](C)C[C@H](C)/C=C/C=C/C=C/1C (as salt: ammonium)", "result": "130 to 132 °C"}

// sample CO[C@H]1C[C@@H]2CC[C@@H](C)[C@@](O)(O2)C(=O)C(=O)N2CCCC[C@H]2C(=O)O[C@H]([C@H](C)C[C@@H]2CC[C@@H](OC(=O)C[n+]3ccccc3)[C@H](OC)C2)CC(=O)[C@H](C)/C=C(\C)[C@@H](O)[C@@H](OC)C(=O)[C@H](C)C[C@H](C)/C=C/C=C/C=C/1C (as salt: ammonium) , its melting point was 135 to 137 °C

// sample CO[C@H]1C[C@@H]2CC[C@@H](C)[C@@](O)(O2)C(=O)C(=O)N2CCCC[C@H]2C(=O)O[C@H]([C@H](C)C[C@@H]2CC[C@@H](OC(=O)C[n+]3cccc(O)c3)[C@H](OC)C2)CC(=O)[C@H](C)/C=C(\C)[C@@H](O)[C@@H](OC)C(=O)[C@H](C)C[C@H](C)/C=C/C=C/C=C/1C (as salt: ammonium) , its melting point was 146 to 148 °C

// sample CO[C@H]1C[C@@H]2CC[C@@H](C)[C@@](O)(O2)C(=O)C(=O)N2CCCC[C@H]2C(=O)O[C@H]([C@H](C)C[C@@H]2CC[C@@H](O)[C@H](OC)C2)CC(=O)[C@H](C)/C=C(\C)[C@@H](OC(=O)C[n+]2ccc(C)cc2)[C@@H](OC)C(=O)[C@H](C)C[C@H](C)/C=C/C=C/C=C/1C (as salt: ammonium) , its melting point was 145 to 148 °C
